Attribution: ChEMBL document CHEMBL2331448

test: Oral bioavailability in CD1 mouse at 20 umol/kg; type: ADME, organism-based; conditions: in vivo
property.name: bioavailability (%)

COc1ccc(-c2ccc3c(N4CCOCC4)nc(N4C[C@@H](C)O[C@@H](C)C4)nc3n2)cc1CO: 61
COc1ccc(-c2ccc3c(N4CCOC[C@@H]4C)nc(N4CCOC[C@@H]4C)nc3n2)cc1CO: 81

====

tested on: MDR1; assay: Apparent permeability from apical to basolateral side of MDCK2 cells expressing human MDR1 at 10 uM; assay type: ADME, cell-based, Canis lupus familiaris, MDCK-II; conditions: dog, MDCK-MDR1
property.name: Papp A→B at 10 µM (×10⁻⁶ cm/s)

1: COc1ccc(-c2ccc3c(N4CCOCC4)nc(N4C[C@@H](C)O[C@@H](C)C4)nc3n2)cc1CO
2: COc1ccc(-c2ccc3c(N4CCOCC4)nc(N4C[C@@H](C)O[C@@H](C)C4)nc3n2)cc1CNCCO
Papp A→B at 10 µM comparison. Which is larger, 1 or 2 ? Answer by stating the label of the chosen item. 2
(2: 45.3 ×10⁻⁶ cm/s, 1: 2.6 ×10⁻⁶ cm/s)
